# phosphorylation enrichment per entry
# target or test system: Hck (UniProt P08631)
# Sequence (P08631 whole entry, looked up): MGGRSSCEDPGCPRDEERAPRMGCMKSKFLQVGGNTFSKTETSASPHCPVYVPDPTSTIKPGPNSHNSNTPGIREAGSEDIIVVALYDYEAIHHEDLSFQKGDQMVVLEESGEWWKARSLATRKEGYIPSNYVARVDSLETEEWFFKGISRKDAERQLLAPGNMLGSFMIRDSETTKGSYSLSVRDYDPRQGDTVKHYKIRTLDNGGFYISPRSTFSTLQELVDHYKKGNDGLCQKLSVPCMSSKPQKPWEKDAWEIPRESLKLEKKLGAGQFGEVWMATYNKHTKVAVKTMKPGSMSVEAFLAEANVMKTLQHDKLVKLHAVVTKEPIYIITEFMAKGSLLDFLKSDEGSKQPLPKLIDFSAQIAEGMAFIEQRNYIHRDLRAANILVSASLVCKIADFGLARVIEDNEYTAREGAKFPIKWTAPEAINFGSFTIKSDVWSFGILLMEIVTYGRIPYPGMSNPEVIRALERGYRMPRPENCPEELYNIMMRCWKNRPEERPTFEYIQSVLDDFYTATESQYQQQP
# protocol text: phosphorylation enrichment, bacterial display (enrichment ratio); higher = better substrate or ligand; peptides without Tyr show the background;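 note: 11-residue human phosphosite peptides and single-mutation variants displayed on the E. coli surface, counted by deep sequencing, each peptide's frequency after selection divided by its frequency in the unselected input library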;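 note: frequency after pTyr selection over input frequency; kinase dosed for 20-30% of maximal phosphorylation in three min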
# answer = number (no unit)

The examples below pair each entry with its known result.
The sequence SLIDMYSEVPD [OPA1_Y268_L272P] on Hck (UniProt P08631): phosphorylation enrichment was 0.594

The sequence YAKSVYWDNTL [NUP107_Y296_E298D] on Hck (UniProt P08631): phosphorylation enrichment was 0.678

The sequence RNIQQHNSFVS [PRKAR1A_Y373_Y373H] on Hck (UniProt P08631): phosphorylation enrichment was 0.378

The sequence GMSQAYSFSQR [DES_Y5_S7F] on Hck (UniProt P08631): phosphorylation enrichment was 0.379

The sequence LEAVSYSSPYA [RNLS_Y190_R193P] on Hck (UniProt P08631): phosphorylation enrichment was 1.07

The sequence FFVVEYRNQKP [MUC17_Y4332_D4334N_YF] on Hck (UniProt P08631): phosphorylation enrichment was 0.687

The sequence IRTIDYRYTVC [IDS_Y497_W502C] on Hck (UniProt P08631): phosphorylation enrichment was 0.561

The sequence DQLVKYGVNPG [TMPO_Y127] on Hck (UniProt P08631): phosphorylation enrichment was 0.363

The sequence NRLTDYFEPLL [BBS10_Y536_YF] on Hck (UniProt P08631): phosphorylation enrichment was 0.548

The sequence GGRIDYIAGLD [APRT_Y60] on Hck (UniProt P08631): phosphorylation enrichment was 0.52

More entries:
The sequence CSRRFYQLTKL [AR_Y858] on Hck (UniProt P08631): phosphorylation enrichment was 0.507

Entry source: the supplement of paper PMC10065799
